Molecular target: human PR-B (Homo sapiens, UniProt P06401)
Construct: expressed in transfected cells; host or cells: CV-1 cells (African green monkey kidney fibroblasts), transient transfection
Sequence (P06401 whole entry): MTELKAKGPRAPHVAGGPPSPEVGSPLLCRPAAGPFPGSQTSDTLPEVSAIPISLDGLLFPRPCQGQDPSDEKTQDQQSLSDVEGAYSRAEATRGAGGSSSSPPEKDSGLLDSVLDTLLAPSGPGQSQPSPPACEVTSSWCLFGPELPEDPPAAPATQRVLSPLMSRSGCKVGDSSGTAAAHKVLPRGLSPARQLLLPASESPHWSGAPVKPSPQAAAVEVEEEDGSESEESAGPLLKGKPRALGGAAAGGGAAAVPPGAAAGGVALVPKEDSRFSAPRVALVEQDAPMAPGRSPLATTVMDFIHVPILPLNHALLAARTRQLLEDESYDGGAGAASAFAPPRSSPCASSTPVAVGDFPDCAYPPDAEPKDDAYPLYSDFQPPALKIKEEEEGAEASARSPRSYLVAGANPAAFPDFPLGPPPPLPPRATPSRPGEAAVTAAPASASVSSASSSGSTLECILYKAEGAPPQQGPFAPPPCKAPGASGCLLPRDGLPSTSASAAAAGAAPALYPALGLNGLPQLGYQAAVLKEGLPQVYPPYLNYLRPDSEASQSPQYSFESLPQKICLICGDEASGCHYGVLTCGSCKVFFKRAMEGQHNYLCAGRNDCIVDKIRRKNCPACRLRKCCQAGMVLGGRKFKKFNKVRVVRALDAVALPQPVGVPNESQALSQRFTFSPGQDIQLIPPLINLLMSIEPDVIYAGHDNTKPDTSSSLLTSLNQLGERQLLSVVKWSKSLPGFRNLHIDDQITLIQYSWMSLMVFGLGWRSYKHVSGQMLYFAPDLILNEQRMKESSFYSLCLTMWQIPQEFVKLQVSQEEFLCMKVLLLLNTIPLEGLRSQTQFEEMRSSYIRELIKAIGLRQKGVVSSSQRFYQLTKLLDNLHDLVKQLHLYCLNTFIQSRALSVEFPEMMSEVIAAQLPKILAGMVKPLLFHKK
Experiment: Co-transfection assay, PR antagonist activity;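 note: monkey kidney fibroblasts co-transfected with receptor expression plasmid and hormone-responsive luciferase reporter, antagonism read as reduced luciferase signal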
Format: cell-based
Settings: CV-1, read-out: PR Antagonist CV-1 Cells Efficacy (%)
QUANTITY_NAME: Emax (%)

{"MOLECULE": "CC1=CC(C)(C)Nc2ccc(-c3cccc(Cl)c3Cl)cc21 [Compound 109]", "SYSTEM_UNDER_TEST": "human PR-B (Homo sapiens, UniProt P06401)", "QUANTITY_NAME": "Emax", "BOUND_OPERATOR": "=", "VALUE": 87}
{"MOLECULE": "CC1C(=O)C(C)(C)Nc2ccc3c(c21)/C(=C/c1cccc(F)c1)Oc1ccccc1-3 (racemic) [Compound 389]", "SYSTEM_UNDER_TEST": "human PR-B (Homo sapiens, UniProt P06401)", "QUANTITY_NAME": "Emax", "BOUND_OPERATOR": "<", "VALUE": 20}
{"MOLECULE": "CCCCC1Oc2ccccc2-c2ccc3c(c21)C(C)C(O)(CCCC)C(C)(C)N3 (racemic) [Compound 385]", "SYSTEM_UNDER_TEST": "human PR-B (Homo sapiens, UniProt P06401)", "QUANTITY_NAME": "Emax", "BOUND_OPERATOR": "=", "VALUE": 45}
{"MOLECULE": "CC1=CC(C)(C)Nc2ccc3c(c21)COc1c(Cl)cccc1-3 [Compound 331]", "SYSTEM_UNDER_TEST": "human PR-B (Homo sapiens, UniProt P06401)", "QUANTITY_NAME": "Emax", "BOUND_OPERATOR": "=", "VALUE": 88}
